Collected IC50 values appear next to each entry.
- target.or.system: SCD1 (Homo sapiens, UniProt O00767)
- Construct: host or cells: S. cerevisiae ole1Δ strain (W303 pdr1Δ pdr3Δ background), plasmid pRS316 with TDH3 promoter and CYC1 terminator
- Sequence (O00767 whole entry): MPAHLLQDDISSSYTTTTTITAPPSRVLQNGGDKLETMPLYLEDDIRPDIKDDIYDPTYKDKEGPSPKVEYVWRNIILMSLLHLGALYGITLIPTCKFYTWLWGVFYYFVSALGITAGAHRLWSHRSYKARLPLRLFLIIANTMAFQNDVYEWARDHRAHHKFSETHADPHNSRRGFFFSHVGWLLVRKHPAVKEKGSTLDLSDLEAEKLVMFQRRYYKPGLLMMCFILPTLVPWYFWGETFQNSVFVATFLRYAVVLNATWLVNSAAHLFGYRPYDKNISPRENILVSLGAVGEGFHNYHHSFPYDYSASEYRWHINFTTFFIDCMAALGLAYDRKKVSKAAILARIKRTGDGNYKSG
- protocol.notes: Growth inhibition of humanized yeast strain expressing SCD1 as sole desaturase
- Format: cell-based
- run.parameters: humanized yeast strain, 40 h
endpoint: IC50

{"compound": "COC(=O)N1CCC(c2noc(-c3ccc4ccn(C(C)C)c4c3)n2)CC1", "test.result": "10.2 µM"}
{"compound": "CC(C)(C)OC(=O)N1CCC(c2noc(-c3cc(F)c4cnn(C5COC5)c4c3)n2)CC1", "test.result": "> 45 µM"}
{"compound": "Cn1cc(-c2cc(-c3nc(C4CCN(C(=O)OC(C)(C)C)CC4)no3)ccn2)cn1", "test.result": "0.83 µM"}
{"compound": "C[C@H]1CN(c2noc(-c3ccc4cnn(C5COC5)c4c3)n2)CCN1C(=O)OC(C)(C)C", "test.result": "> 45 µM"}
{"compound": "COC(=O)N1CCC(c2noc(-c3ccc4cnn(C5CCN(C)C5=O)c4c3)n2)CC1 (stereo not drawn)", "test.result": "27.2 µM"}
{"compound": "CC(C)n1ncc2ccc(-c3nc(N4CCN(C(=O)c5ncccc5F)CC4)no3)cc21", "test.result": "> 45 µM"}
{"compound": "O=C(N1CCC(c2noc(-c3ccnc(C4CCOC4)c3)n2)CC1)C1(C(F)(F)F)CCC1 (stereo not drawn)", "test.result": "> 45 µM"}
{"compound": "CC(C)n1ncc2ccc(-c3cc(C4CCN(C(=O)OC(C)(C)C)CC4)on3)nc21", "test.result": "> 45 µM"}
{"compound": "CN(c1cc(-c2nc(N3CCN(C(=O)OC(C)(C)C)CC3)no2)ccn1)C1COC1", "test.result": "> 45 µM"}
{"compound": "O=C(N1CCN(c2noc(-c3ccc4cnn(C5COC5)c4c3)n2)CC1)C1(F)CC1", "test.result": "8.5 µM"}
{"compound": "COC(=O)N1CCC(c2noc(-c3ccc4cnn([C@@H]5CCOC5)c4c3)n2)CC1 [Compound 876]", "test.result": "> 45 µM"}
{"compound": "CC(C)(C)OC(=O)N1CCC(c2noc(-c3ccc4cnn(C5CCOC5)c4c3)n2)CC1 (stereo not drawn)", "test.result": "4.13 µM"}
{"compound": "COC(=O)N1CCC(c2noc(-c3ccc(F)c(N4CCOCC4)c3)n2)CC1", "test.result": "> 45 µM"}
{"compound": "O=C(CC1CC1)N1CCCN(c2noc(-c3ccc4cnn(C5COC5)c4c3)n2)CC1", "test.result": "> 45 µM"}
{"compound": "CC(C)C(=O)N1CCC(c2noc(-c3ccnc(C4CCOC4)c3)n2)CC1 (stereo not drawn)", "test.result": "> 45 µM"}
{"compound": "COC1(C(=O)N2CCC(C)(c3nc(-c4ccc5cnn(C(C)C)c5c4)no3)CC2)CC1", "test.result": "> 45 µM"}
{"compound": "CC(C)(C)OC(=O)N1CCC(c2noc(-c3cccc([C@@H]4CCOC4)c3)n2)CC1", "test.result": "> 45 µM"}
{"compound": "CCC(=O)N1CCC(c2noc(-c3ccccc3N3CCOCC3)n2)CC1", "test.result": "> 45 µM"}
{"compound": "COC(=O)N1CCN(c2noc(-c3ccnc(OC4COC4)c3)n2)CC1", "test.result": "> 45 µM"}
{"compound": "COC(=O)N1CCC(c2noc(-c3cccc(N4CCOCC4)c3)n2)CC1", "test.result": "> 45 µM"}
{"compound": "CC1(CC(=O)N2CCN(c3nnc(-c4ccc5cnn(C6COC6)c5c4)o3)CC2)CC1", "test.result": "> 45 µM"}
{"compound": "COC(=O)N1CCCC(c2noc(-c3ccc4cnn(C5COC5)c4c3)n2)CC1 (stereo not drawn)", "test.result": "> 45 µM"}
{"compound": "CC(C)(C)OC(=O)N1CCC(c2noc(-c3cccc(C4CCCO4)c3)n2)CC1 (stereo not drawn)", "test.result": "> 45 µM"}
{"compound": "CC(C)c1noc2ccc(-c3noc(C4CCN(C(=O)C5CCC5)CC4)n3)cc12", "test.result": "> 45 µM"}
{"compound": "COC(=O)N1CCC(c2noc(-c3ccc4cnn(C5CNC5)c4c3)n2)CC1", "test.result": "> 45 µM"}
{"compound": "CC(C)(C)OC(=O)N1CC(n2ncc3ccc(-c4nc(N5CCn6c(Cl)cnc6C5)no4)cc32)C1", "test.result": "> 45 µM"}
{"compound": "O=C(c1ncccc1F)N1CCN(c2noc(-c3ccc4cnn(C5COC5)c4c3)n2)CC1", "test.result": "> 45 µM"}
{"compound": "O=C(C1CC1)N1CCC(c2noc(-c3ccnc(NC4COC4)c3)n2)CC1", "test.result": "> 45 µM"}
{"compound": "O=C(N1CCN(c2noc(-c3ccc4cnn(C5COC5)c4c3)n2)CC(F)(F)C1)C1(F)CC1", "test.result": "> 45 µM"}
{"compound": "CC(C)Nc1cc(-c2nc(N3CCN(C(=O)OC(C)(C)C)CC3)no2)ccn1", "test.result": "> 45 µM"}
{"compound": "O=C(CC1CC1)N1CCC(c2noc(-c3ccc4cnn(C5CCOC5)c4c3)n2)CC1 (stereo not drawn)", "test.result": "> 45 µM"}
{"compound": "CC(C)(C)OC(=O)N1CCC(c2noc(N3CCc4nn(C5COC5)cc4C3)n2)CC1", "test.result": "≥ 45 µM"}
{"compound": "COC(=O)N1CCC(c2noc(-c3ccc4cnn(C5CS(=O)(=O)C5)c4c3)n2)CC1", "test.result": "> 45 µM"}
